test: ATG_CRE_CIS: Attagene CIS-FACTORIAL HepG2 Assay for human cAMP Responsive Element (CRE) binding protein 3 (AID 2282926); conditions: HepG2 CRE cis-reporter, Attagene multiplexed mRNA; actives raise or lower the signal
The source made the active and inactive calls. The calls were made as follows: active = hit-call score of the fitted dose curve at least 0.9, where 1 is the maximum; inactive = score below 0.9.
One label from this list, please: t = active, f = inactive

Example entries and their recorded answers appear below.
>  <molecule>
O=C1CN(N=Cc2ccc([N+](=O)[O-])o2)C(=O)N1

>  <assigned.class>
f

$$$$
>  <molecule>
Nc1ccn([C@@H]2O[C@H](CO)[C@@H](O)[C@@H]2O)c(=O)n1

>  <assigned.class>
f

$$$$
>  <molecule>
CCCCCOC(C)=O

>  <assigned.class>
f

$$$$
>  <molecule>
NNC(=O)c1ccncc1

>  <assigned.class>
f

$$$$
>  <molecule>
FC(F)=C(F)C(F)(F)C(F)(F)C(F)(F)C(F)(F)C(F)(F)C(F)(F)F

>  <assigned.class>
f

$$$$
>  <molecule>
CCN(CC)C(=S)SSC(=S)N(CC)CC

>  <assigned.class>
t

$$$$
>  <molecule>
c1ccc2cc3ccccc3cc2c1

>  <assigned.class>
f

$$$$
>  <molecule>
CCOc1ccc2[nH]cc(C(=O)NCc3ccccc3)c(=O)c2n1

>  <assigned.class>
f

$$$$

Challenge: Tell me the assay call for CCCC(CCC)C(=O)O please.
Response given: f

Challenge: Call for entry CCCCC(CC)C(=O)OCCOCCOCCOC(=O)C(CC)CCCC (configuration not stated) :
Response given: f

Challenge: Give the logged outcome of this assay for the following molecule: CNC(C)=O
Response given: f

Challenge: Field: outcome | Entry: C=CCc1cc(S(=O)(=O)c2ccc(O)c(CC=C)c2)ccc1O
Response given: f

Challenge: I would be grateful if you could indicate the recorded call for OC(Cn1cncn1)(Cn1cncn1)c1ccc(F)cc1F .
Response given: f

Challenge: Called result for COS(C)(=O)=O
Response given: f

Challenge: Hi, do you know how FC(F)(F)C(F)(F)C(F)(F)C(F)(F)C(F)(F)C(F)(F)I came out in this test?
Response given: f

Challenge: What did the test return for OC(CCl)CCl ?
Response given: f

Challenge: # outcome recorded in this test, key = C=CN1CCCC1=O
Response given: f

Challenge: For CCn1nc(C)c2c1C(=O)NCC(c1ccc(O)cc1)=N2 , what call appears in the results of this test?
Response given: f

Challenge: What classification did OCC(CO)(CO)CO end up with in this test?
Response given: f

Challenge: // return assay outcome for CC1(C)C(=O)N(Cl)C(=O)N1Cl
Response given: f

Challenge: Could you please tell me the result logged for Cc1nc(-c2ccccn2)ncc1C(=O)Nn1cc(C)c2cc(F)ccc21 in this assay?
Response given: f

Challenge: What did this assay record as the result for O=C(O)c1ccc2c(c1)nc(C(=O)NC1CCN(C3CC3)CC1)n2Cc1cc(-c2ccc(Cl)s2)on1 ?
Response given: f

* * *

read-out: Thrombomodulin, THBD (gene 7056); assay: BSK_CASM3C_Thrombomodulin: BioMAP Diversity Plus: CASM3C Assay for Thrombomodulin Biomarker Activity (AID 2283051); details: primary human coronary artery smooth muscle cells; actives raise or lower the signal;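 also: thrombomodulin protein level measured by ELISA 24 h after dosing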
The source made the active and inactive calls. Rule for the calls: active = hit-call score of the fitted dose curve at least 0.9, where 1 is the maximum; inactive = score below 0.9.
Write down one outcome, taken from label 1 (active), label 0 (inactive)

Challenge: Please indicate how the test categorized CCc1cccc(CC)c1N .
Response given: label 0

Challenge: Given CCCCCCCCCC , state the outcome it received in this test.
Response given: label 0

* * *

assay: Tanguay_ZF_120hpf_SWIM_legacy: (Legacy) Oregon State University Tanguay Lab 120 Hour Post-fertilization zebrafish Assay for Swim Bladder Malformation (AID 2283654);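 also: swim bladder malformation in each larva scored yes or no under brightfield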
Records with an inconclusive call do not appear. Calls of active or inactive are those of the source. The calls were made as follows: active = hit-call score of the fitted dose curve at least 0.9, where 1 is the maximum; inconclusive = response in the unintended direction; inactive = score below 0.9.
value.kind: outcome

>  <chemical.smiles>
OC(CCl)CCl

>  <outcome>
inactive

$$$$
>  <chemical.smiles>
CC(C)C(=O)Nc1ccc([N+](=O)[O-])c(C(F)(F)F)c1

>  <outcome>
inactive

$$$$
>  <chemical.smiles>
C=CCc1cc(S(=O)(=O)c2ccc(O)c(CC=C)c2)ccc1O

>  <outcome>
inactive

$$$$
>  <chemical.smiles>
OCCOCCOCCO

>  <outcome>
inactive

$$$$
>  <chemical.smiles>
O=C(NO)C1(NS(=O)(=O)c2ccc(Oc3ccc(F)cc3)cc2)CCOCC1

>  <outcome>
inactive

$$$$

Would you kindly look at the next entry?
Challenge: State the recorded outcome for this entry: O=C(O)c1cccc(C[C@@H]2COc3ccc(OCc4nc5cc(F)ccc5s4)cc3[C@@H]2O)c1
Response given: inactive

* * *

biological target: Retinoic acid receptor alpha (Homo sapiens) (UniProt P10276); assay: ATG_DR5_RAR_CIS: Attagene CIS-FACTORIAL HepG2 Assay for human Retinoic Acid Receptor Alpha (RARE), DR5 submotif (AID 2282934); settings: HepG2 Attagene cis-factorial RARE DR5 reporter, mRNA; actives raise or lower the signal
Sequence (P10276 whole entry, looked up): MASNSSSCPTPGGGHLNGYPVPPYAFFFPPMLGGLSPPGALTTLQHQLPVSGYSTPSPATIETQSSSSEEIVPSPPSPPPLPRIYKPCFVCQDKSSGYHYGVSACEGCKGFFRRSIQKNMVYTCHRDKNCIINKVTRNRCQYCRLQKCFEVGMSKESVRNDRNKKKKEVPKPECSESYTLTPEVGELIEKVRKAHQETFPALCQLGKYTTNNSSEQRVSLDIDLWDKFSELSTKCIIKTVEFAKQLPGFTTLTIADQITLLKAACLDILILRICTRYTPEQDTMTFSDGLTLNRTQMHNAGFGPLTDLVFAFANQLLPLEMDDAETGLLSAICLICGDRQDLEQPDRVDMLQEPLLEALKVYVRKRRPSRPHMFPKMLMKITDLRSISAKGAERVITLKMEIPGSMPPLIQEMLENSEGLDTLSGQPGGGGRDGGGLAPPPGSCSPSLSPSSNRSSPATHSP
The source made the active and inactive calls. The calls were made as follows: active = hit-call score of the fitted dose curve at least 0.9, where 1 is the maximum; inactive = score below 0.9.
Select the correct class. Options are yes (1) (active), no (0) (inactive) and nothing else.

Completed entries (count: 2):
>  <compound>
C[Si](C)(C)C(F)(F)C(F)(F)C(F)(F)F

>  <assigned.class>
no (0)

$$$$
>  <compound>
FC(F)C(F)(F)COCC1CO1 (stereo unspecified)

>  <assigned.class>
no (0)

$$$$

Challenge: Query: recorded result category for COc1cc(C(C)C)c2c(c1)S(=O)(=O)N(COc1cc(=O)n3cccc(OCCN4CCCCC4)c3n1)C2=O in this test
Response given: yes (1)

Challenge: Please let me know the test result on file for O=C1CN(N=Cc2ccc([N+](=O)[O-])o2)C(=O)N1 .
Response given: no (0)

Challenge: Recorded call for FC(F)=C(F)C(F)(F)C(F)(F)C(F)(F)C(F)(F)C(F)(F)C(F)(F)F ?
Response given: no (0)

Challenge: GET /call?item= FC(F)(F)COC(OCC(F)(F)F)OCC(F)(F)F returns the recorded outcome of this test.
Response given: no (0)

Challenge: What is the recorded call for this compound in the test? C=CCc1cc(S(=O)(=O)c2ccc(O)c(CC=C)c2)ccc1O
Response given: no (0)

Challenge: Which result was noted for this compound in the test: c1ccc2cc3ccccc3cc2c1
Response given: no (0)

Challenge: Recorded test outcome, item Cn1cc[nH]c1=S
Response given: no (0)

Challenge: Per the assay record, what outcome was assigned to NC(=O)N1c2ccccc2C=Cc2ccccc21 ?
Response given: no (0)

Challenge: Outcome logged for CC[C@H](C)C(=O)O[C@H]1C[C@H](O)C=C2C=C[C@H](C)[C@H](CC[C@@H](O)C[C@@H](O)CC(=O)O)[C@H]21 in this assay:
Response given: no (0)

* * *

biological target: Hypoxia-inducible factor 1-alpha (Homo sapiens) (UniProt Q16665); assay: ATG_HIF1a_CIS: Attagene CIS-FACTORIAL HepG2 Assay for human Hypoxia Inducible Factor 1 (HIF1A) (AID 2282951); conditions: HepG2 Attagene cis-factorial HIF1a reporter transcription; actives raise or lower the signal
Sequence (Q16665 whole entry, looked up): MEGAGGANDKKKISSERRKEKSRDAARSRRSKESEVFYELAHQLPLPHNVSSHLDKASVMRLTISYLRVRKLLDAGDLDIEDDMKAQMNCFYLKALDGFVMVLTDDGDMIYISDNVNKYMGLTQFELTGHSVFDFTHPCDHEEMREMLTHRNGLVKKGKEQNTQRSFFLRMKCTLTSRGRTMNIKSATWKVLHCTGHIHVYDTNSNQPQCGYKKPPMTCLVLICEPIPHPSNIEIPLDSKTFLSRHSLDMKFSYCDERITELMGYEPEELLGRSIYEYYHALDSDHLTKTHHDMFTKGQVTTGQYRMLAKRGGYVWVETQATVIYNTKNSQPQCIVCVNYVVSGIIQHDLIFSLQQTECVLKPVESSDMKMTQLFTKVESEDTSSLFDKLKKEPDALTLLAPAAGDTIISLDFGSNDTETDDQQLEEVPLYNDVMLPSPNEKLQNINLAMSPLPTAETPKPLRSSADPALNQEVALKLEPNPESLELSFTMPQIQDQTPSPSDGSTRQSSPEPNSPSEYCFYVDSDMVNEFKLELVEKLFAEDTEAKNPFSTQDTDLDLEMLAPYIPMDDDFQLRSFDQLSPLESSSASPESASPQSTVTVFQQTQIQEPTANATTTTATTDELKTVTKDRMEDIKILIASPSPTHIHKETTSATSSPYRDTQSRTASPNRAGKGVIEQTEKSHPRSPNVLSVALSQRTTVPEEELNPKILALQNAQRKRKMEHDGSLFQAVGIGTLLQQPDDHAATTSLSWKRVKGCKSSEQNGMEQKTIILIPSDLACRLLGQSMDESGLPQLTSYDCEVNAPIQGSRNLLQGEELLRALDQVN
Calls of active or inactive are those of the source. How the source made its calls: active means hit-call score of the fitted dose curve at least 0.9, where 1 is the maximum; inactive means score below 0.9.
value.kind: AC50

// solved cases for AC50 follow
>  <compound>
C[C@@H](Oc1ccc(CNC(=O)c2cccnc2Oc2ccc3c(c2)OCO3)c(F)c1)C(=O)O

>  <assay.target>
Hypoxia-inducible factor 1-alpha (Homo sapiens) (UniProt Q16665)

>  <AC50>
inactive

$$$$
>  <compound>
FC(F)=C(F)C(F)(F)C(F)(F)C(F)(F)C(F)(F)C(F)(F)C(F)(F)F

>  <assay.target>
Hypoxia-inducible factor 1-alpha (Homo sapiens) (UniProt Q16665)

>  <AC50>
inactive

$$$$
>  <compound>
c1ccc2cc3ccccc3cc2c1

>  <assay.target>
Hypoxia-inducible factor 1-alpha (Homo sapiens) (UniProt Q16665)

>  <AC50>
inactive

$$$$
>  <compound>
O=S(=O)(O)c1ccc(N=Nc2c(O)ccc3cc(S(=O)(=O)O)ccc23)cc1

>  <assay.target>
Hypoxia-inducible factor 1-alpha (Homo sapiens) (UniProt Q16665)

>  <AC50>
inactive

$$$$
>  <compound>
O=C(O)c1cccc(C(=O)O)c1

>  <assay.target>
Hypoxia-inducible factor 1-alpha (Homo sapiens) (UniProt Q16665)

>  <AC50>
inactive

$$$$
>  <compound>
CCCCCCCCCC

>  <assay.target>
Hypoxia-inducible factor 1-alpha (Homo sapiens) (UniProt Q16665)

>  <AC50>
inactive

$$$$
>  <compound>
C[Si](C)(C)C(F)(F)C(F)(F)C(F)(F)F

>  <assay.target>
Hypoxia-inducible factor 1-alpha (Homo sapiens) (UniProt Q16665)

>  <AC50>
inactive

$$$$
>  <compound>
c1ccc2ncccc2c1

>  <assay.target>
Hypoxia-inducible factor 1-alpha (Homo sapiens) (UniProt Q16665)

>  <AC50>
inactive

$$$$

Challenge: Value wanted: AC50 (Hypoxia-inducible factor 1-alpha (Homo sapiens) (UniProt Q16665)) of entry FC(F)(F)C(F)(F)C(F)(F)C(F)(F)C(F)(F)C(F)(F)I
Response given: inactive

Challenge: Form: Entry = O=C1CN(N=Cc2ccc([N+](=O)[O-])o2)C(=O)N1 | System = Hypoxia-inducible factor 1-alpha (Homo sapiens) (UniProt Q16665) | AC50 = ____
Response given: 27.3 µM (active)

Challenge: Hello, I am looking for reported AC50 with Hypoxia-inducible factor 1-alpha (Homo sapiens) (UniProt Q16665) for OC(Cn1cncn1)(Cn1cncn1)c1ccc(F)cc1F . Could you help?
Response given: inactive

Challenge: Form: Entry = OC(O)(C(F)C(O)(O)C(F)(F)F)C(F)(F)F | System = Hypoxia-inducible factor 1-alpha (Homo sapiens) (UniProt Q16665) | AC50 = ____
Response given: inactive
